Apical domain, RLU reference
target: T1, CD71 apical domain (UniProt P02786 189-383, limits assumed); assay: solution ELISA
T1 construct: domain: Apical domain
T1 sequence (P02786 189-383 limits assumed): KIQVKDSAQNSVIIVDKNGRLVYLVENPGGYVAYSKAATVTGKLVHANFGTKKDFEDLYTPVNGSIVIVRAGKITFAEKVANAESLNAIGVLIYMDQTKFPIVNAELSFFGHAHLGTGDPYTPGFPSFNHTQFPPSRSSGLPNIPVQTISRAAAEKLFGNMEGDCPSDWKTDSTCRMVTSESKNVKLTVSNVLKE
value_kind: Apical domain, RLU

| binder | measured_result |
| --- | --- |
| SEQ ID NO 142 (designed binder, FN3 domain) MLPAPKNLVVSRVTEDSARLSWTAPDAAFDSFFIGYLEPQPPGEAIGLQVPGSERSYDLTGLKPGTEYNVTIQGVKGGFPSHPLKAQFTT | 4.36e+06 RLU |
| SEQ ID NO 109 (designed binder, FN3 domain) MLPAPKNLVVSRVTEDSARLSWTAPDAAFDSFHISYEEDYTFGEAIYLRVPGSERSYDLTGLKPGTEYRVVIGGVKGGWFSEPLLAAFTT | 28300 RLU |
| SEQ ID NO 201 (designed binder, FN3 domain) MLPAPKNLVVSRVTEDSARLSWTAPDAAFDSFYIAYAEPRPDGEAISLWVPGSERSYDLTGLKPGTEYSVLIHGVKGGLLSSPLLAHFTT | 7.5e+06 RLU |
| SEQ ID NO 122 (designed binder, FN3 domain) MLPAPKNLVVSRVTEDSARLSWTAPDAAFDSFYIAYAEPRPDGEAIILVVPGSERSYDLTGLKPGTEYSVLIHGVKGGLLSSPLSAHFTT | 8.06e+06 RLU |
